Experimental target: T1, human programmed cell death protein 1 (hPD-1) C93S (aa 24-167) (Homo sapiens, UniProt Q15116, C93S)
T1 construct: made as a fusion with a TEV site and human Fc; the Fc was cut off with TEV protease; source: Expi293F, purified (Protein A, TEV cleavage of Fc, SEC; monomer fractions); not shown: Fc (human), C-terminal, cleaved
T1 sequence (Q15116 24-167 C93S): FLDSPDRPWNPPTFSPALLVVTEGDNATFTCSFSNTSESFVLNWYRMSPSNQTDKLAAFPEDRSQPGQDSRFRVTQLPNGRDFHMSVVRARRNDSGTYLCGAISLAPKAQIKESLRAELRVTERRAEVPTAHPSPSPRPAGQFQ
Protocol notes: SPR; Carterra LSA; Fab from the ammonium sulfate precipitate of the culture supernatant immobilised on a NiHC200M chip; hPD-1 (1-1024 nM) or mPD-1-Fc (4-1024 nM) as analyte, fourfold dilution series, no regeneration; HBS-EP pH 7.4, 25 °C; medians over the spots of a construct, KD = koff/kon
Condition details: one partner purified
I'd appreciate it if you marked entries Satisfied when kon is lower than 20000 M⁻¹ s⁻¹ and Not satisfied when it is not.

## Task Is kon of toripalimab Fab L.S25Y (Fab, V domains shown, as the heavy chain of Sm3; light chain of Sm3 with this change; numbers count from the chain's first residue; source: Brevibacillus, culture supernatant (ammonium sulfate precipitate); not shown: 6xHis, C-terminal, kept; 6xHN, C-terminal, kept) VH: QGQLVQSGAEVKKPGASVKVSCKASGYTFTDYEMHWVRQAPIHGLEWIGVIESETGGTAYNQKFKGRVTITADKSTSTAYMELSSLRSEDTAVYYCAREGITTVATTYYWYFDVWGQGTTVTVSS VL: DVVMTQSPLSLPVTLGQPASISCRYSQSIVHSNGNTYLEWYLQKPGQSPQLLIYKVSNRFSGVPDRFSGSGSGTDFTLKISRVEAEDVGVYYCFQGSHVPLTFGQGTKLEIK strictly below 20000 M⁻¹ s⁻¹?
## Result Satisfied

## Task Is kon of toripalimab Fab H.V104Y (Fab, V domains shown, heavy chain of Sm3 with this change; numbers count from the chain's first residue; as the light chain of Sm3; source: Brevibacillus, culture supernatant (ammonium sulfate precipitate); not shown: 6xHis, C-terminal, kept; 6xHN, C-terminal, kept) VH: QGQLVQSGAEVKKPGASVKVSCKASGYTFTDYEMHWVRQAPIHGLEWIGVIESETGGTAYNQKFKGRVTITADKSTSTAYMELSSLRSEDTAVYYCAREGITTYATTYYWYFDVWGQGTTVTVSS VL: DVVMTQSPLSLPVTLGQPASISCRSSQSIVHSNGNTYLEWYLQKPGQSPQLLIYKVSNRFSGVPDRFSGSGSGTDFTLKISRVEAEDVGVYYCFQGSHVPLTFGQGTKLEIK strictly below 20000 M⁻¹ s⁻¹?
## Result Satisfied

## Task Is kon of toripalimab Fab L.R59A (Fab, V domains shown, as the heavy chain of Sm3; light chain of Sm3 with this change; numbers count from the chain's first residue; source: Brevibacillus, culture supernatant (ammonium sulfate precipitate); not shown: 6xHis, C-terminal, kept; 6xHN, C-terminal, kept) VH: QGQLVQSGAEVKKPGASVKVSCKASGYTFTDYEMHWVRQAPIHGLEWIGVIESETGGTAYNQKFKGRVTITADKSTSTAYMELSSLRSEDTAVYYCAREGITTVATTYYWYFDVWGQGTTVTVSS VL: DVVMTQSPLSLPVTLGQPASISCRSSQSIVHSNGNTYLEWYLQKPGQSPQLLIYKVSNAFSGVPDRFSGSGSGTDFTLKISRVEAEDVGVYYCFQGSHVPLTFGQGTKLEIK strictly below 20000 M⁻¹ s⁻¹?
## Result Not satisfied

## Task Is kon of toripalimab Fab H.Q62Y (Fab, V domains shown, heavy chain of Sm3 with this change; numbers count from the chain's first residue; as the light chain of Sm3; source: Brevibacillus, culture supernatant (ammonium sulfate precipitate); not shown: 6xHis, C-terminal, kept; 6xHN, C-terminal, kept) VH: QGQLVQSGAEVKKPGASVKVSCKASGYTFTDYEMHWVRQAPIHGLEWIGVIESETGGTAYNYKFKGRVTITADKSTSTAYMELSSLRSEDTAVYYCAREGITTVATTYYWYFDVWGQGTTVTVSS VL: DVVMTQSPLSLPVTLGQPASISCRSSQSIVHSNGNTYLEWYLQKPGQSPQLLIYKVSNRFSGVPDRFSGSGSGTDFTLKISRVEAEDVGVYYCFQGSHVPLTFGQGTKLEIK strictly below 20000 M⁻¹ s⁻¹?
## Result Satisfied

## Task Is kon of toripalimab Fab H.G66Y (Fab, V domains shown, heavy chain of Sm3 with this change; numbers count from the chain's first residue; as the light chain of Sm3; source: Brevibacillus, culture supernatant (ammonium sulfate precipitate); not shown: 6xHis, C-terminal, kept; 6xHN, C-terminal, kept) VH: QGQLVQSGAEVKKPGASVKVSCKASGYTFTDYEMHWVRQAPIHGLEWIGVIESETGGTAYNQKFKYRVTITADKSTSTAYMELSSLRSEDTAVYYCAREGITTVATTYYWYFDVWGQGTTVTVSS VL: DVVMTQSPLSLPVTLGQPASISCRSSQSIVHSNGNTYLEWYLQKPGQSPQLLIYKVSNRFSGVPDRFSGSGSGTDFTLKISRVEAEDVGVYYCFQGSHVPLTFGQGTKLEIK strictly below 20000 M⁻¹ s⁻¹?
## Result Satisfied
